# Tested on: HEK-293T
# test_protocol: Incucyte cell viability with HEK293T; note: unitless GR value; below 1 slowed growth and below 0 cell loss
# Type: toxicity, cell-based
# conditions_used: human, 24 h, 10 µM, compound concentration 10 uM, replicate number 1, timepoint 24 hours
// returns Not satisfied unless Growth Rate is strictly below 0.8, in which case Satisfied

# example entries with known answers
{"columns": ["compound", "class_name"],
 "data": [
  ["COC[C@@H](c1ccc(C(F)(F)F)cc1)N1CCN(C2(C)CCN(C(=O)c3c(C)ncnc3C)CC2)C[C@@H]1C.O=C(O)/C=C\\C(=O)O [VICRIVIROC MALEATE]", "Satisfied"],
  ["CC1(C)[C@H]2C[C@H](C/C=C\\CCCC(=O)O)[C@@H](NC(=O)c3csc4ccc(O)cc34)[C@@H]1C2", "Not satisfied"],
  ["COCCN1CCC(c2cc(CN(C)C(=O)c3cccc(Oc4ccccc4)c3)ccn2)CC1", "Not satisfied"],
  ["C[C@H]1[C@H](OC(=O)CCC(=O)O)O[C@@H]2O[C@@]3(C)CC[C@H]4[C@H](C)CC[C@@H]1[C@@]24OO3 [ARTESUNATE]", "Satisfied"]
]}

Q. Given Cc1cc(Nc2ncc(Cl)c(Nc3ccccc3S(=O)(=O)C(C)C)n2)c(OC(C)C)cc1C1CCNCC1 , is recorded Growth Rate strictly lower than 0.8?
A. Satisfied

Q. Dear reviewer, please state whether Cc1nn(C)c(C)c1-c1cccc2c1CC[C@H](N(C)C)C2 has Growth Rate strictly beneath 0.8.
A. Not satisfied

Q. Consider C[C@@H](O[C@H]1OCCN(Cc2n[nH]c(=O)[nH]2)[C@H]1c1ccc(F)cc1)c1cc(C(F)(F)F)cc(C(F)(F)F)c1 [APREPITANT] . Does its Growth Rate lie strictly below 0.8?
A. Satisfied

Q. Check if Growth Rate falls below 0.8 for Cc1cc(OCCCS(C)(=O)=O)cc(C)c1-c1cccc(COc2ccc3c(c2)OC[C@H]3CC(=O)O)c1 .
A. Satisfied

----------
# Tested on: Fibroblast
# test_protocol: Incucyte cell viability with human fibroblast; note: unitless GR value; below 1 slowed growth and below 0 cell loss
# Format: toxicity, cell-based
# conditions_used: 24 h, 10 µM, compound concentration 10 uM, replicate number 2, timepoint 24 hours
Provide the reported Growth Rate of each item.

Example cases with answers are listed next.
{"columns": ["molecule", "target_entity", "Growth Rate"],
 "data": [
  ["CN(C)c1ccnc2sc3c(=O)n(N4CCCCCC4)cnc3c12", "Fibroblast", -0.22],
  ["Cc1cc(O)c(-c2ccc([C@@H](C)CN(C)C)cc2)c2c1[nH]c(=O)c1sccc12", "Fibroblast", -0.25],
  ["COc1cc(C(=O)N2CC[C@@H](O)[C@@H](N)C2)cc2nc(-c3cc4ccccc4n3CC3CC3)n(C)c12.Cl", "Fibroblast", 0.15],
  ["O=C(O)C(F)(F)F.O=C1NC(=O)/C(=C/c2c[nH]c(=O)c(-c3ccc(N4CCNCC4)nc3)c2)S1", "Fibroblast", 0.71],
  ["Brc1c(N=C2NCCN2)ccc2nccnc12.O=C(O)C(O)C(O)C(=O)O", "Fibroblast", 0.91],
  ["CC(C)c1cc(Oc2c(Cl)cc(-n3nc(C#N)c(=O)[nH]c3=O)cc2Cl)n[nH]c1=O", "Fibroblast", 0.85]
]}

Would you mind giving Growth Rate for every molecule in the list below?
1. O=c1ccn([C@@H]2O[C@H](COP(=O)([O-])OP(=O)([O-])OP(=O)([O-])O)[C@@H](O)[C@H]2O)c(=O)[nH]1.[Na+].[Na+].[Na+]
2. Cc1cc(OCCCS(C)(=O)=O)cc(C)c1-c1cccc(COc2ccc3c(c2)OC[C@H]3CC(=O)O)c1

A.
0.78
0.67

Working through the 4 molecules below one at a time, give Growth Rate for each.
1. COc1c(C)cc(NC(=O)c2nn(Cc3ccc(F)cc3)c3c2CN(C(=O)c2ccc[nH]2)C[C@]3(C)C(N)=O)cc1C
2. CC#C[C@@H](CC(=O)O)c1ccc(OCc2cccc(-c3ccc(C(F)(F)F)cc3)c2)cc1
3. O=C(NC[C@@H]1[C@H]2CN(C(=O)OCc3cc(C(F)(F)F)cc(C(F)(F)F)c3)C[C@@H]12)c1ccc2[nH]nnc2c1
4. CN1CCN(c2ccc(Nc3c4ccccc4nc4ccccc34)cc2)CC1.Cl.Cl.O

A.
1. 0.29
2. 0.31
3. 0.57
4. 0.11

Provide reported Growth Rate for each item, in the same order as listed.
1. CC[S+]([O-])c1nc(-c2cccc(OCc3ccccc3)c2)cc(C(F)(F)F)n1 (stereo unspecified)
2. C[C@@H](O[C@H]1OCCN(Cc2n[nH]c(=O)[nH]2)[C@H]1c1ccc(F)cc1)c1cc(C(F)(F)F)cc(C(F)(F)F)c1 [APREPITANT]
3. S=C(NCCCc1c[nH]cn1)NCCCN(Cc1ccc(Cl)c(Cl)c1)c1ccc(Br)cn1
4. C[C@H](CCC(=O)O)[C@H]1CC[C@H]2[C@@H]3CC[C@@H]4C[C@H](O)CC[C@]4(C)[C@H]3CC[C@]12C

A.
1: -0.5; 2: 0.5; 3: 0.74; 4: 0.78

----------
# Tested on: U2OS
# test_protocol: Incucyte cell viability with U2OS; note: unitless GR value; below 1 slowed growth and below 0 cell loss
# Format: toxicity, cell-based
# conditions_used: human, 6 h, 10 µM, compound concentration 10 uM, replicate number 1, timepoint 6 hours
measurement_type: Growth Rate
Answers are plain numbers.

{"columns": ["compound", "Growth Rate"],
 "data": [
  ["CCNC(=O)[C@H]1O[C@@H](n2cnc3c(N)nc(NCCc4ccc(CCC(=O)O)cc4)nc32)[C@H](O)[C@@H]1O.Cl", 0],
  ["O=C([O-])[C@H]1O[C@H](OP(=O)([O-])OP(=O)([O-])OC[C@H]2O[C@@H](n3ccc(=O)[nH]c3=O)[C@H](O)[C@@H]2O)[C@H](O)[C@@H](O)[C@@H]1O.[Na+].[Na+].[Na+]", 0.46],
  ["CC(=O)c1cc(-c2ccccc2OCC2CC2)c2ncccn12", 0.45],
  ["O=c1ccn([C@@H]2O[C@H](COP(=O)([O-])OP(=O)([O-])OP(=O)([O-])OP(=O)([O-])OC[C@H]3O[C@@H](n4ccc(=O)[nH]c4=O)[C@H](O)[C@@H]3O)[C@@H](O)[C@H]2O)c(=O)[nH]1.[Na+].[Na+].[Na+].[Na+] [DIQUAFOSOL TETRASODIUM]", 0.17]
]}

Parameter requested: Growth Rate. Apply to each item below.
1. Cc1nn(C)c(C)c1-c1cccc2c1CC[C@H](N(C)C)C2
2. Cl.Cl.OCCOCCN1CCN(C(c2ccccc2)c2ccc(Cl)cc2)CC1 (configuration not stated) [HYDROXYZINE HYDROCHLORIDE]
3. Brc1c(N=C2NCCN2)ccc2nccnc12.O=C(O)C(O)C(O)C(=O)O

A.
[0.52, 0.46, 0.6]

----------
# Tested on: HEK-293T
# test_protocol: Incucyte cell viability with HEK293T; note: unitless GR value; below 1 slowed growth and below 0 cell loss
# Format: toxicity, cell-based
# conditions_used: human, 18 h, 10 µM, compound concentration 10 uM, replicate number 2, timepoint 18 hours
Give measured Growth Rate for each item. Keep answers brief.
Numbers only.

{"columns": ["molecule", "target_entity", "readout_value"],
 "data": [
  ["CCN(Cc1ccncc1)C(=O)C(CO)c1ccccc1 (configuration not stated) [TROPICAMIDE]", "HEK-293T", 0.83],
  ["CCCCC/C=C\\C/C=C\\C/C=C\\C/C=C\\CCCC(=O)NCC(=O)O", "HEK-293T", 0.93],
  ["O=C(O)c1cccc(/C=C2/C[C@@H]3[C@@H](/C=C/[C@H](O)C4CCCCC4)[C@H](O)C[C@@H]3O2)c1", "HEK-293T", 1],
  ["CC1=C(C)C(=O)C(C(C)(C)CC(=O)N(CCCCSC[C@H]2O[C@@H](n3cnc4c(N)ncnc43)[C@@H]3OC(C)(C)O[C@@H]32)Cc2cccc(-c3ccc(Cl)cc3)c2)=C(C)C1=O", "HEK-293T", 0.94],
  ["COc1ccc2cc(S(=O)(=O)N[C@H](CC(=O)N[C@H](Cc3ccc(CN4[C@H](C)CCC[C@@H]4C)cc3)C(=O)N(C)C(C)C)c3ccc4c(c3)OCO4)ccc2c1.Cl", "HEK-293T", 0.41]
]}

Provide the reported Growth Rate of each entry below, same order.
1. CCOc1c2c(c(OCC)c3ncccc13)CN(c1ccc(CS(=O)(=O)NC(=O)Cc3ccccc3OC)cc1C)C2=O
2. N#Cc1cc2c(OCC(O)CN3CCN(C(c4ccccc4)c4ccccc4)CC3)cccc2[nH]1 (racemic)

A.
1
0.26

----------
# Tested on: HEK-293T
# test_protocol: Incucyte cell viability with HEK293T; note: unitless GR value; below 1 slowed growth and below 0 cell loss
# Assay type: toxicity, cell-based
# conditions_used: human, 12 h, 10 µM, compound concentration 10 uM, replicate number 1, timepoint 12 hours
Kindly state Growth Rate for each of the entries shown.
Give bare numbers.

Solved entries:
{"columns": ["compound", "measurement_type", "readout_value"],
 "data": [
  ["O=C(Nc1cc(-c2cn[nH]c2)ccc1N1CCOCC1)c1ccc(-c2ccc3ncccc3c2)o1", "Growth Rate", -0.14],
  ["COC(=O)[C@H](CCCNC(=N)N)NC(=O)CCCc1c(-c2ccccc2)[nH]c2c(F)cc(F)cc12.O=C(O)C(F)(F)F", "Growth Rate", 0.53],
  ["C[C@H](N)Cn1ccc2cc(F)c(Cl)cc21.O=C(O)/C=C/C(=O)O", "Growth Rate", 0.55],
  ["COC[C@@H](CC(C)C)NC1=N/C(=C\\c2ccc3ncsc3c2)C(=O)N1C", "Growth Rate", 0.24],
  ["Cn1cnc(-c2cc3nccc(Oc4ccc(NC(=S)NC(=O)Cc5ccccc5)cc4F)c3s2)c1", "Growth Rate", -0.02],
  ["Cc1cccc(NC(=O)CN2CCC(c3ccccn3)CC2)c1.Cl.Cl", "Growth Rate", 0.79]
]}

Please report Growth Rate for every entry that follows.
1. CN(C)C(=O)N1CC[C@H](NC2=Nc3cc(F)ccc3N(CC(F)F)c3ccc(Cl)cc32)C1
2. O=C(CCCc1ccccc1)Nc1nc2ccccc2c(=O)s1

A.
1. 0.82
2. 0.13

For every item below, please supply its Growth Rate.
1. COc1ccc2nc3ccc(OC)cc3c(SCCCN)c2c1.Cl
2. CC[S+]([O-])c1nc(-c2cccc(OCc3ccccc3)c2)cc(C(F)(F)F)n1 (centres undefined)

A.
[-0.16, -0.45]

// for each compound in input: emit Growth Rate
1. O=C1NCc2ccc3c(-c4cccc(Cl)c4)c[nH]c3c21
2. OCCCNc1cc(-c2ccnc(Nc3cccc(Cl)c3)n2)ccn1
3. COc1cc(C(=O)N2CC[C@@H](O)[C@@H](N)C2)cc2nc(-c3cc4ccccc4n3CC3CC3)n(C)c12.Cl
4. Cl.Clc1ccc2nsnc2c1NC1=NCCN1 [TIZANIDINE HYDROCHLORIDE]
5. Cc1nc[nH]c1CCN.Cl
6. CC(C)Cc1ccc([C@@H](C)C(=O)NS(C)(=O)=O)cc1
7. CC1=C(C)C(=O)C(C(C)(C)CC(=O)N(CCCCSC[C@H]2O[C@@H](n3cnc4c(N)ncnc43)[C@@H]3OC(C)(C)O[C@@H]32)Cc2cccc(-c3ccc(Cl)cc3)c2)=C(C)C1=O

A.
-0.31
-0.52
0.85
1
0.91
0.78
0.85

Could I get Growth Rate for every one of these entries?
1. CN(CCN1CCC(OC(=O)Nc2ccccc2-c2ccccc2)CC1)C(=O)c1ccc(CN2CCC(C(N)=O)CC2)cc1
2. COc1ccc2c(c1)C(C(=O)N(Cc1ccc(N(C)C)cc1)c1ccc(C(C)C)cc1)CCC2.Cl (centres undefined)

A.
0.95
0.27
